target: binding partner of C5A (XPA23); test: Biacore K-off
Entries and their fold difference in affinity vs original values follow.

- Binder: "C5A (XPA23) VL D28L (antibody, V domains shown) VH: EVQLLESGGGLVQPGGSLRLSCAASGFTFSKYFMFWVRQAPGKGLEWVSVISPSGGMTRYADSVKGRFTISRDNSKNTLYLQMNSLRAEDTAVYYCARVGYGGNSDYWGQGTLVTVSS VL: DIQMTQSPSSVSASVGDRLTIICRASQLINRWLAWYQQTPGNAPKLLIHSATSLQSGVPSRFSGSGSGTDFTLTINSLQPEDFATYYCQQADSFPLTFGGGTKVEIK"
  fold difference in affinity vs original: "9.64 fold"
- Binder: "C5A (XPA23) VL F94P (antibody, V domains shown) VH: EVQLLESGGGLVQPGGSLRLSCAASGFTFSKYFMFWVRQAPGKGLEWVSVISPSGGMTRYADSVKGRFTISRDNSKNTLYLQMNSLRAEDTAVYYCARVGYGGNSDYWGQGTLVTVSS VL: DIQMTQSPSSVSASVGDRLTIICRASQDINRWLAWYQQTPGNAPKLLIHSATSLQSGVPSRFSGSGSGTDFTLTINSLQPEDFATYYCQQADSPPLTFGGGTKVEIK"
  fold difference in affinity vs original: "0.17 fold"
- Binder: "C5A (XPA23) VL S53Y (antibody, V domains shown) VH: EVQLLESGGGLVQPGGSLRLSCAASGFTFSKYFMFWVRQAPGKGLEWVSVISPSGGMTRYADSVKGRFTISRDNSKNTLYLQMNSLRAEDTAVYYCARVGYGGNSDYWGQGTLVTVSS VL: DIQMTQSPSSVSASVGDRLTIICRASQDINRWLAWYQQTPGNAPKLLIHSATYLQSGVPSRFSGSGSGTDFTLTINSLQPEDFATYYCQQADSFPLTFGGGTKVEIK"
  fold difference in affinity vs original: "1.23 fold"
- Binder: "C5A (XPA23) VH Y32V (antibody, V domains shown) VH: EVQLLESGGGLVQPGGSLRLSCAASGFTFSKVFMFWVRQAPGKGLEWVSVISPSGGMTRYADSVKGRFTISRDNSKNTLYLQMNSLRAEDTAVYYCARVGYGGNSDYWGQGTLVTVSS VL: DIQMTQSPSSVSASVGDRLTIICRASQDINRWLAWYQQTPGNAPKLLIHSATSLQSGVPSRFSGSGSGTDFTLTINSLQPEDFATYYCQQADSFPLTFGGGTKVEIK"
  fold difference in affinity vs original: "1.07 fold"
- Binder: "C5A (XPA23) VL A51S (antibody, V domains shown) VH: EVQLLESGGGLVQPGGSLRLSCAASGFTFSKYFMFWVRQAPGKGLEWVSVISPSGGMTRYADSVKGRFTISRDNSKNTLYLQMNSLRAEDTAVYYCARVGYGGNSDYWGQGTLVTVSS VL: DIQMTQSPSSVSASVGDRLTIICRASQDINRWLAWYQQTPGNAPKLLIHSSTSLQSGVPSRFSGSGSGTDFTLTINSLQPEDFATYYCQQADSFPLTFGGGTKVEIK"
  fold difference in affinity vs original: "0.95 fold"

The origin of these recorded values is patent US20110118447A1.
